All values here come from ChEMBL document CHEMBL1133720.

test system: MCF7; assay: Inhibition of MCF-7/adr human breast tumor cell proliferation; type: functional, cell-based
Measured pIC50, listed per entry.
By convention, pIC50 is the negative base-10 log of a molar concentration.

Consider the reported pIC50 for these molecules:
• COc1cc(/C=C(\C#N)c2ccccn2)ccc1O = 4.28
• N#C/C(=C\c1ccc(Oc2ccccc2)c(I)c1)c1ccccn1 = 4.60

Q) Give pIC50 (MCF7) of the following molecule: N#C/C(=C\c1ccc(O)cc1)c1ccccn1
A) 4.29
